Cited source for all entries: paper PMC4747952

Assay: Lipophilicity measurement (Log D)
Type: physicochemical
Conditions: pH 7.4; octanol and phosphate buffer (pH7.4); read-out: Log D7.4
Measured Property: logD

>>> endpoint_value("COc1ccc(N2C(=O)CCc3cc(OC4CCN(C5CCC5)CC4)ccc32)cn1 [TASP0410457]")
1.79

1. COc1ccc(N2C(=O)CCc3cc(OC4CCN(C5CCC5)CC4)ccc32)cc1 [TASP0434988]
2. COc1ccc(N2C(=O)CCc3cc(OCCCN4CCC[C@H]4C)ccc32)cc1 [TASP0390136]
Problem: Pick the one with the larger logD: 1 vs 2 Bench note: the answer is the label of the chosen record.
Result: 1
